The values you see were collected from patent US9751861B2.

# IC50 per entry
Target: PDHK2 (Homo sapiens, UniProt Q15119)

Solved entries:
> print(dat)
                                     smiles          result
1  Cc1cc(C2CCN(C(=O)[C@@](C)(O)C(F)(F)F)CC2)n(-c2ccc(Cl)cc2)n1        < 300 nM
2  C[C@@](O)(C(=O)N1CCC(c2ccnn2C2CC2)CC1)C(F)(F)F  300 to 3000 nM

Field: next compound
Find the measured IC50: item `C[C@@H]1CN(C(=O)[C@@](C)(O)C(F)(F)F)CC[C@@H]1c1ccnn1-c1ccc(F)cc1F` , target or system PDHK2 (Homo sapiens, UniProt Q15119). < 300 nM

---

pIC50: −log10 of the molar value.
Here's what we have: pIC50 numbers for UniProtKB Q15119.

Worked examples follow.
> print(dat)
                                   compound        result
1  C[C@@](O)(C(=O)N1CCC(c2cncn2-c2ccccc2)CC1)C(F)(F)F  5.52 to 6.52
2  CC(C)c1ccc(-n2nccc2C2CCN(C(=O)[C@@](C)(O)C(F)(F)F)CC2)cc1  5.52 to 6.52
3  C[C@@](O)(C(=O)N1CCC(c2ccnn2-c2ccc(Cl)cc2)CC1)C(F)(F)F        > 6.52

Form field: reported pIC50 of `C[C@@](O)(C(=O)N1CCC(c2ccn[nH]2)CC1)C(F)(F)F` 4.30 to 5.52

Return reported pIC50; argument: `Cc1ccc(-n2nccc2C2CCN(C(=O)[C@@](C)(O)C(F)(F)F)CC2)nc1` 5.52 to 6.52

Fill in the blank: the reported pIC50 of `C[C@@](O)(C(=O)N1CCC(c2ccn(-c3ncc(F)cc3F)n2)CC1)C(F)(F)F` is ____. 5.52 to 6.52

Name the recorded pIC50 for `COc1ccc(-n2nccc2C2CCN(C(=O)[C@@](C)(O)C(F)(F)F)CC2)cc1Cl` . > 6.52

# query: pIC50 of entry `Cc1ccccc1-n1nccc1C1CCN(C(=O)[C@@](C)(O)C(F)(F)F)CC1` 5.52 to 6.52

Value lookup for pIC50; key = `Cc1cc(-n2nccc2C2CCN(C(=O)[C@@](C)(O)C(F)(F)F)CC2)no1` 5.52 to 6.52

---

Target: human PDHK2 (12-407) (Homo sapiens)
recorded_endpoint: Kd

> print(dat)
                                   molecule  recorded.endpoint    result
1  COc1ccc(-n2cncc2C2CCN(C(=O)[C@@](C)(O)C(F)(F)F)CC2)cc1 [Compound A131]                 Kd  < 300 nM

Reported Kd for C[C@@](O)(C(=O)N1CCC(c2ccnn2-c2ccc(C(F)(F)F)cc2)CC1)C(F)(F)F [Compound A27] : what is it? < 300 nM

Fill in the blank: the reported Kd of C[C@@](O)(C(=O)N1CCC(n2nccc2-c2ccccc2)CC1)C(F)(F)F [Compound A66] is ____. 300 to 3000 nM

What does the record list as Kd for CC(C)n1nccc1C1CCN(C(=O)[C@@](C)(O)C(F)(F)F)CC1 [Compound A36] ? < 300 nM

Look up Kd for this molecule: C[C@@](O)(C(=O)N1CCC(c2ccnn2-c2ccc(Cl)cc2)CC1)C(F)(F)F [Compound A13] < 300 nM

Can you share its Kd? I mean this molecule: C[C@@H]1CN(C(=O)[C@@](C)(O)C(F)(F)F)CC[C@@H]1c1ccnn1[C@H]1CC[C@H](O)CC1 [Compound A121] < 300 nM

---

Molecular target: PDHK2 (Homo sapiens, UniProt Q15119)
Construct: purchased Carna Bioscience
Assay: Biochemical activity testing of PDHK2: PDC inactivation assay
Conditions: human rec PDHK2, PDC from porcine heart, ATP 5 μM; read-out: IC50 PDHK2 (enzyme assay)
recorded_endpoint: IC50

Solved cases below.
> print(dat)
                                   molecule       result
1  C[C@@](O)(C(=O)N1CCC(c2ccnn2-c2cccc(F)c2)CC1)C(F)(F)F [Compound A10]     < 0.3 µM
2  C[C@@](O)(C(=O)N1CCC(c2nncn2-c2ccc(F)cc2)CC1)C(F)(F)F [Compound A71]  0.3 to 3 µM
3  C[C@@](O)(C(=O)N1CCC(c2ccnn2-c2ccc(C#N)cc2)CC1)C(F)(F)F [Compound A9]  0.3 to 3 µM

Which IC50 is reported for this molecule? COc1ccc(-n2nccc2C2CCN(C(=O)[C@@](C)(O)C(F)(F)F)CC2)c(F)c1 [Compound A28] < 0.3 µM

Which IC50 value is on record for Cn1nccc1C1CCN(C(=O)[C@@](C)(O)C(F)(F)F)CC1 [Compound A52] ? 0.3 to 3 µM

Param item = COc1ccc(-n2ccnc2C2CCN(C(=O)[C@@](C)(O)C(F)(F)F)CC2)cc1 [Compound A70] ; retrieve measured IC50. 0.3 to 3 µM

For the molecule shown here, C[C@@](O)(C(=O)N1CCC(c2ccnn2-c2ccc(F)cn2)CC1)C(F)(F)F [Compound A112] , give the reported IC50. 0.3 to 3 µM

Query: IC50; subject: COc1ccc(-n2ccc(C3CCN(C(=O)[C@@](C)(O)C(F)(F)F)CC3)n2)nn1 [Compound A105] 0.3 to 3 µM

Quick check: IC50 of Cn1ccc(C2CCN(C(=O)[C@@](C)(O)C(F)(F)F)CC2)n1 [Compound A99] ? 3 to 50 µM

Item under review: CC(C)n1nccc1C1CCN(C(=O)[C@@](C)(O)C(F)(F)F)CC1 [Compound A36] . Reported IC50? 0.3 to 3 µM

// IC50 lookup, key: C[C@H]1CN(C(=O)[C@@](C)(O)C(F)(F)F)CC[C@H]1c1ccn(-c2ccc(F)cc2)n1 [Compound A45] 3 to 50 µM

Which IC50 is reported for this molecule? COc1ccc(-n2nccc2[C@H]2CCN(C(=O)[C@@](C)(O)C(F)(F)F)C[C@H]2C)cc1 [Compound A110] < 0.3 µM

---

Target: PDHK2 (Homo sapiens, UniProt Q15119)
pIC50: −log10 of the molar value.
recorded_endpoint: pIC50

Below: 5 compounds and their reported pIC50.
> print(dat)
                                   compound                         tested.target        result
1  C[C@@H]1CN(C(=O)[C@@](C)(O)C(F)(F)F)CC[C@@H]1c1ccnn1-c1ccc(F)cn1  PDHK2 (Homo sapiens, UniProt Q15119)        > 6.52
2  C[C@@](O)(C(=O)N1CCC(c2nccn2-c2ccc(F)cc2)CC1)C(F)(F)F  PDHK2 (Homo sapiens, UniProt Q15119)  5.52 to 6.52
3  COc1ccc(-n2nccc2[C@H]2CCN(C(=O)[C@@](C)(O)C(F)(F)F)C[C@H]2C)cn1  PDHK2 (Homo sapiens, UniProt Q15119)        > 6.52
4  C[C@@](O)(C(=O)N1CCC(c2cc(C(F)(F)F)nn2-c2ccc(F)cc2)CC1)C(F)(F)F  PDHK2 (Homo sapiens, UniProt Q15119)  5.52 to 6.52
5  C[C@@](O)(C(=O)N1CCC(c2ccnn2-c2ccc(OC(F)(F)F)cc2)CC1)C(F)(F)F  PDHK2 (Homo sapiens, UniProt Q15119)        > 6.52

Form entry - test system: PDHK2 (Homo sapiens, UniProt Q15119); read-out: pIC50; compound: `C[C@@](O)(C(=O)N1CCC(c2nncn2-c2ccc(Cl)cc2)CC1)C(F)(F)F` 5.52 to 6.52

Which pIC50 is reported with PDHK2 (Homo sapiens, UniProt Q15119) for this entry: CC1CN(C(=O)[C@@](C)(O)C(F)(F)F)CCC1c1ccn(-c2ccc(F)cc2)n1 (some centres unmarked) ? 5.52 to 6.52

API: value(readout= pIC50, system= PDHK2 (Homo sapiens, UniProt Q15119), query= `CC(C)Cn1ccc(C2CCN(C(=O)[C@@](C)(O)C(F)(F)F)CC2)n1` ) 5.52 to 6.52

Provide the documented pIC50 with PDHK2 (Homo sapiens, UniProt Q15119) as the system for `COc1ccc(-n2nncc2C2CCN(C(=O)[C@@](C)(O)C(F)(F)F)CC2)cc1` 5.52 to 6.52

Give pIC50 (PDHK2 (Homo sapiens, UniProt Q15119)) of the following compound: `C[C@@](O)(C(=O)N1CCC(c2ccnn2C2CCCC2)CC1)C(F)(F)F` 5.52 to 6.52

Which measured pIC50 belongs to `C[C@H]1CN(C(=O)[C@@](C)(O)C(F)(F)F)CC[C@H]1c1ccnn1-c1ccc(F)cc1` , tested on PDHK2 (Homo sapiens, UniProt Q15119)? 5.52 to 6.52

Form field: pIC50 recorded for `C[C@@](O)(C(=O)N1CCC(c2ccnn2-c2ccccc2C(F)(F)F)CC1)C(F)(F)F` with PDHK2 (Homo sapiens, UniProt Q15119) (enter value) 5.52 to 6.52

Observed pIC50 on PDHK2 (Homo sapiens, UniProt Q15119) for `C[C@@](O)(C(=O)N1CCC(c2ccnn2C2CCOCC2)CC1)C(F)(F)F` , please. 5.52 to 6.52

For the record `C[C@@](O)(C(=O)N1CCC(c2ccn(-c3ccc(Cl)cn3)n2)CC1)C(F)(F)F` , what value of pIC50 is listed for PDHK2 (Homo sapiens, UniProt Q15119)? 5.52 to 6.52

Entry `C[C@@](O)(C(=O)N1CCC(n2cncc2-c2ccccc2)CC1)C(F)(F)F` , system PDHK2 (Homo sapiens, UniProt Q15119): what pIC50 was measured? 5.52 to 6.52

Report pIC50 for `C[C@@](O)(C(=O)N1CCC(c2ccn(-c3ncc(Cl)cn3)n2)CC1)C(F)(F)F` tested on PDHK2 (Homo sapiens, UniProt Q15119). 4.30 to 5.52

Query pIC50 on PDHK2 (Homo sapiens, UniProt Q15119) for `C[C@@](O)(C(=O)N1CCC(c2cncn2-c2ccc(Cl)cc2)CC1)C(F)(F)F` 5.52 to 6.52

Recorded pIC50 for `CC(C)(O)c1ccc(-n2nccc2C2CCN(C(=O)[C@@](C)(O)C(F)(F)F)CC2)c(F)c1` with PDHK2 (Homo sapiens, UniProt Q15119), please? 5.52 to 6.52

Provide value of pIC50 for this record tested with PDHK2 (Homo sapiens, UniProt Q15119): `C[C@@](O)(C(=O)N1CCC(c2ccnn2-c2ccc(C(F)(F)F)cc2F)CC1)C(F)(F)F` 5.52 to 6.52

Provide the documented pIC50 with PDHK2 (Homo sapiens, UniProt Q15119) as the system for `C[C@@](O)(C(=O)N1CCC(c2ccnn2-c2cccc(Cl)c2)CC1)C(F)(F)F` 5.52 to 6.52

Quick check: pIC50 on PDHK2 (Homo sapiens, UniProt Q15119), item `CC(C)(C)c1ccc(-n2nccc2C2CCN(C(=O)[C@@](C)(O)C(F)(F)F)CC2)cc1` ? 5.52 to 6.52

# value lookup — system PDHK2 (Homo sapiens, UniProt Q15119), readout pIC50, item `CN1CCC(n2nccc2C2CCN(C(=O)[C@@](C)(O)C(F)(F)F)CC2)CC1` 4.30 to 5.52

Short answer please: pIC50, PDHK2 (Homo sapiens, UniProt Q15119), entry `C[C@@H]1CN(C(=O)[C@@](C)(O)C(F)(F)F)CC[C@@H]1c1ccnn1-c1ccccc1` > 6.52
